Biological target: SARS-CoV-2 M^pro (Severe acute respiratory syndrome coronavirus 2, UniProt P0DTD1)
Experiment: biochemical
Details: ReFRAME hits; >5e-6 = not potent enough to determine an IC50; read-out: M^pro IC50
measuredProperty: IC50 (nM)
# unit: nM | format: bare number

Given item SENNOSIDES [reference compound] , the value recorded as its IC50 is 700

* * *

Target: SARS-CoV-2 PL^pro (Severe acute respiratory syndrome coronavirus 2)
Test: biochemical
Conditions: ReFRAME hits; >5e-6 = not potent enough to determine an IC50; read-out: PL^pro IC50
pIC50: −log10 of the molar value.
measuredProperty: pIC50

Given item SENNOSIDES [reference compound] , the value recorded as its pIC50 is < 5.30
